Every entry's value here was drawn from patent US20240270826A1.

Target: Human SARS-CoV-2_Wuhan S (SmT1) (SARS-CoV-2 (Wuhan), UniProt P0DTC2 14-1208)
Test: flow cytometry SVNA, VHH vs biotin-S binding to Vero E6 ACE2
Assign labels as follows, please: MET for IC99 below 70 nM; NOT MET for IC99 equal to or exceeding 70 nM.

In: State whether 70 nM exceeds IC99 recorded for NRCoV2-14 VHH (VHH) VHH: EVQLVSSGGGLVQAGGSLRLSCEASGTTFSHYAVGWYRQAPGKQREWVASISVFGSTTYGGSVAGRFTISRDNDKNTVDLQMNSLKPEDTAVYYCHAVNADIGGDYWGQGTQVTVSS .
Out: NOT MET

In: State whether 70 nM exceeds IC99 recorded for NRCoV2-1d VHH (VHH) VHH: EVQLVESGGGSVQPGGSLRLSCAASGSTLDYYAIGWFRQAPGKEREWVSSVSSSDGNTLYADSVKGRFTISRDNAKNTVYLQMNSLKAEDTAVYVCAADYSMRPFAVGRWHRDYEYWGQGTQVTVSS .
Out: MET

In: State whether 70 nM exceeds IC99 recorded for NRCoV2-07 VHH (VHH) VHH: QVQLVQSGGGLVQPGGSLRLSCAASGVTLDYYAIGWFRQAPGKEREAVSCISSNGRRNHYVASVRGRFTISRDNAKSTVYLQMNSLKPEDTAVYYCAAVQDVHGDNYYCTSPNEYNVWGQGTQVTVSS .
Out: MET

In: State whether 70 nM exceeds IC99 recorded for NRCoV2-05 VHH (VHH) VHH: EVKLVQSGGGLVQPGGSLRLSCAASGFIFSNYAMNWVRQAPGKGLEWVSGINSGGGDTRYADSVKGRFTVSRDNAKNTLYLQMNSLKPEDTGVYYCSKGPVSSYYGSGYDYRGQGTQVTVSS .
Out: MET

In: State whether 70 nM exceeds IC99 recorded for NRCoV2-10 VHH (VHH) VHH: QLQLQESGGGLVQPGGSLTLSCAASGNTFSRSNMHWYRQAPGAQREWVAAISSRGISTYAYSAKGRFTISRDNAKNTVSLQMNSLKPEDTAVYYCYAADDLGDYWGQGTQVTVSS .
Out: NOT MET
